This collection of values is drawn from ChEMBL document CHEMBL4385640.

# method.summary: Drug uptake in mouse brain at 0.1 mg/kg, po measured after 1 hr by LC-MS/MS analysis
# Type: ADME, organism-based
# condition.summary: brain, read-out: Drug uptake
experimental.readout: concentration at 1 h (ng/g)
Answers are plain numbers, in ng/g.

Supply recorded concentration at 1 h for Cc1ncc(C)n2nc(CC(=O)N3c4nc5ccccc5n4C[C@@H]3C)nc12 here.
2.2

---

# target.under.test: cAMP and cAMP-inhibited cGMP 3',5'-cyclic phosphodiesterase 10A (Homo sapiens, UniProt Q9Y233)
# Sequence (Q9Y233 whole entry): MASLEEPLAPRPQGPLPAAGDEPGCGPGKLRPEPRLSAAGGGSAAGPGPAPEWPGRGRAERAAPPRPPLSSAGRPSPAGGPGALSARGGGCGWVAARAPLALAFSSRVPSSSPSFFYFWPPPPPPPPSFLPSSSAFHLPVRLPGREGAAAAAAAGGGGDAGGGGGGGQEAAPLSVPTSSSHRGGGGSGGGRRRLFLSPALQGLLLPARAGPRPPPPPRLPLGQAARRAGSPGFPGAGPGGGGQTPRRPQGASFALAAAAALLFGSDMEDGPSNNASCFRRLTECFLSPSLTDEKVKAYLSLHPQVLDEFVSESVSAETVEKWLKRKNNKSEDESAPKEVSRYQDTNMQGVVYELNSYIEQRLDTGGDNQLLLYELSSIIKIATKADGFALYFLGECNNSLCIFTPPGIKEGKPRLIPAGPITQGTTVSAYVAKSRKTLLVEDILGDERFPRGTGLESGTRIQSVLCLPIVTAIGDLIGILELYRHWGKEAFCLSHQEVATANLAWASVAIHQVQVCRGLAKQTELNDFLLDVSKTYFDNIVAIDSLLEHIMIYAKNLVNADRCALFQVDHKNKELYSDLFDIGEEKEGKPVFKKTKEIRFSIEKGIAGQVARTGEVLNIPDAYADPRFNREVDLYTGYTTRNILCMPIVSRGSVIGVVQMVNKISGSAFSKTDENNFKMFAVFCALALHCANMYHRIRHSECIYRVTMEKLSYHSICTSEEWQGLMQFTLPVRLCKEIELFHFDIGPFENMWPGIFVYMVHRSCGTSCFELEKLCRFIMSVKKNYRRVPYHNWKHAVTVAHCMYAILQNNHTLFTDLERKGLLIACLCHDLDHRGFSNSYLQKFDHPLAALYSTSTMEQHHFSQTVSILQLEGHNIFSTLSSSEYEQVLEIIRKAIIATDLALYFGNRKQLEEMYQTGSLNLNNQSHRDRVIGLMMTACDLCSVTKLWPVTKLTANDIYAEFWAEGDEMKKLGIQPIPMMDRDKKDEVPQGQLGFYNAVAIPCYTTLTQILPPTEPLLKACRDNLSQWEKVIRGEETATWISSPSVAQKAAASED
experimental.readout: pIC50
Give bare numbers, as −log10 of the molar value.

Below, each entry is followed by its recorded pIC50 result.
>  <chemical.smiles>
Cc1cc(C)n2nc(CCNc3nc4ccccc4n3C)nc2n1

>  <experimental.readout>
pIC50

>  <quantitative.result>
7.06

$$$$
>  <chemical.smiles>
Cc1cc(C)n2nc(CC(=O)N3c4nc5ccccc5n4C[C@@H]3C)nc2n1

>  <experimental.readout>
pIC50

>  <quantitative.result>
7.55

$$$$

Next up:
Supply recorded pIC50 for Cc1cc(C)n2nc(CC(=O)N3c4nc5ccccc5n4CC3(C)C)nc2n1 here.
7.13
